System: M14 melanoma
assayOverview: NCI tumour cell line growth inhibition, 48 h
*1 amine or outer side, *2 acyl side, *3 side chain or, on linkers, in order; H or OH if unused. Where a SMILES comes first, the peptide text is derived from it. Bridges are numbered along the chain shown (N, C = ends). Roman numbers before positions name the chains, in order. X23 = CCCCCCCCCCCCCCC(=O)NC(CCCCN[*:2])C(=O)CN1CCCC1C(=O)[*:1]
Outcome: True for TGI of at least 50 µM; False for anything lower.

compound="CCCCCCCCCCCCCCC(=O)NC(CCCCNC(=O)C1CCCN1C(=O)C(CCCCN)NC(=O)C(CCCCN)NC(=O)C(CCCCN)NC(=O)C(CCCNC(=N)N)NC(=O)C(CCCCN)NC(=O)C(N)C(C)C)C(=O)CN1CCCC1C(=O)NCC(=O)NC(Cc1ccccc1)C(=O)N1CCCC1C(=O)NC(CO)C(=O)NC(Cc1ccc(O)cc1)C(=O)NC(CCCCN)C(=O)NC(CC(C)C)C(=O)NC(CCCNC(=N)N)C(=O)N1CCCC1C(=O)NCC(N)=O (stereo unspecified) (I: GFPSYKLRPG-NH2 / II: H-VKRKKKP; linker I:N-II:C via X23; configuration not given here)" classassignment=True
compound=COc1cc(-c2ccc(Nc3ccccc3C(=O)O)c(OC)c2)ccc1Nc1ccccc1C(=O)O classassignment=True
compound=O=Cc1c[nH]c2ccc(-c3csc4ccccc34)cc12 classassignment=True
compound=Oc1[nH]c2ccc(Cl)cc2c1/C=c1/ccc2c(c1)N=C(c1ccc(C(F)(F)F)cc1)N=2 classassignment=False
compound=CCCC(=O)n1[nH]c(=O)n(C(C)(C)C)c1=O classassignment=True
compound=O=C(OCC(Cl)(Cl)Cl)N1CC[C@@H](C2CCCCC2)C1 classassignment=True
compound=Cc1cc(NS(=O)(=O)c2ccc(NC(=O)COc3ccc(-c4cc5ccccc5[nH]4)cc3)cc2)no1 classassignment=False
compound=C=C(CS(=O)(=O)c1ccccc1)C(=O)OCC classassignment=False
compound=S=C(Nc1ccc(Cl)cc1)SC1CCCCC1 classassignment=False
compound="O=C(O)CC1C(=O)OC2C3COC(=O)c4cc(O)c(O)c(O)c4-c4c(cc(O)c(O)c4O)C(=O)OC2C(OC(=O)c2cc(O)c(O)c4c2C1C(O)C(=O)O4)C(OC(=O)c1cc(O)c(O)c(O)c1)O3 (stereo unspecified)" classassignment=True
compound="O=C1CC(NC2CC(=O)c3c(Br)sc(Br)c32)c2c(Br)sc(Br)c21 (stereo unspecified)" classassignment=False
compound="Nc1cccc2c1CN(C1CCC(=O)NC1=O)C2=O (stereo unspecified)" classassignment=True
compound=COc1ccccc1/C=C1\N=C(C)OC1=O classassignment=True
compound=C=CC(=O)N1CC2(CC(n3nc(-c4ccc(Oc5ccccc5)cc4)c4c(N)ncnc43)C2)C1 classassignment=True

Origin of values: PubChem BioAssay (NCI)
